test: Metabolic stability in human liver microsomes assessed as half-life measured upto 60 mins in the presence of NADPH as co-factor by LC-MS/MS analysis; type: ADME, Microsome
assay.endpoint: half-life (min)
Express your answer in min, writing the number without its unit.

INPUT: If you can, please state the reported half-life value of CN(C(=O)[C@H](Cc1ccccc1)NC(=O)CNC(=O)c1ccccc1)c1ccc(Cl)cc1 .
OUTPUT: 36

###

test: Metabolic stability in human liver microsomes assessed as half-life at 1 uM measured upto 15 mins in the presence of NADPH as co-factor by LC-MS/MS analysis; format: ADME, Microsome
I would appreciate it if you labelled entries fulfilled when half-life at 1 µM is 4 min or higher, otherwise not fulfilled.

A selection of reference data follows.
CN(C(=O)[C@H](Cc1ccccc1)NC(=O)COn1nnc2cccnc21)c1ccc(Cl)cc1
not fulfilled
CN(C(=O)[C@H](Cc1ccccc1)NC(=O)CN1CCN(C(=O)c2ccccc2Cl)CC1=O)c1ccc(Cl)cc1
fulfilled
CN(C(=O)[C@H](Cc1ccccc1)NC(=O)CN1CCN(C(=O)c2cccc(Cl)n2)CC1=O)c1ccc(Cl)cc1
not fulfilled
CN(C(=O)[C@H](Cc1ccccc1)NC(=O)CN1CCN(C(=O)c2ccccc2[N+](=O)[O-])CC1=O)c1ccc(Cl)cc1
not fulfilled
CN(C(=O)[C@H](Cc1ccccc1)NC(=O)CN1CCN(C(=O)c2cccc(Br)c2)CC1=O)c1ccc(Cl)cc1
fulfilled
CN(C(=O)[C@H](Cc1ccccc1)NC(=O)CN1CCN(C(=O)c2cccc([N+](=O)[O-])c2)CC1=O)c1ccc(Cl)cc1
not fulfilled

INPUT: For this compound, is measured half-life at 1 µM 4 min or higher? CN(C(=O)[C@H](Cc1ccccc1)NC(=O)CN1CCN(C(=O)c2ccc(Cl)cc2)CC1=O)c1ccc(Cl)cc1
OUTPUT: fulfilled

INPUT: For this compound, is measured half-life at 1 µM 4 min or higher? CN(C(=O)[C@H](Cc1ccccc1)NC(=O)CN1CCN(C(=O)c2ccccc2Br)CC1=O)c1ccc(Cl)cc1
OUTPUT: fulfilled

INPUT: For this compound, is measured half-life at 1 µM 4 min or higher? CN(C(=O)[C@H](Cc1ccccc1)NC(=O)CN1CCN(C(=O)c2ccccc2N)CC1=O)c1ccc(Cl)cc1
OUTPUT: fulfilled

###

assay: Metabolic stability in mouse liver microsomes assessed as half-life at 1 uM measured upto 15 mins in the presence of NADPH as co-factor by LC-MS/MS analysis; format: ADME, Microsome
Response field label takes label 1 when half-life at 1 µM is strictly below 1 min and label 0 in all other cases.

A selection of reference data follows.
CN(C(=O)[C@H](Cc1ccccc1)NC(=O)CN1CCN(C(=O)c2ccc(Cl)cc2)CC1=O)c1ccc(Cl)cc1
label 0
CN(C(=O)[C@H](Cc1ccccc1)NC(=O)CN1CCN(C(=O)c2cccc([N+](=O)[O-])c2)CC1=O)c1ccc(Cl)cc1
label 1
CN(C(=O)[C@H](Cc1ccccc1)NC(=O)CN1CCN(C(=O)c2ccccc2N)CC1=O)c1ccc(Cl)cc1
label 0
CN(C(=O)[C@H](Cc1ccccc1)NC(=O)CN1CCN(C(=O)c2ccccc2Cl)CC1=O)c1ccc(Cl)cc1
label 0

Alright, here's another compound for you.
INPUT: Strictly below 1 min in half-life at 1 µM? CN(C(=O)[C@H](Cc1ccccc1)NC(=O)CN1CCN(C(=O)c2ccccc2Br)CC1=O)c1ccc(Cl)cc1
OUTPUT: label 0
